Source: BigSolDB 2.1

Conditions: in n-butanol, 283.15 K
readout type: solubility (mole fraction)

query: Reported solubility (mole fraction) for "C=CC(=O)NC(C)(C)CC(C)=O" : what is it?
result: 0.253

====

Conditions: in ethyl formate, 303.25 K
readout type: solubility (mole fraction)
Reply briefly: the number, and no unit.

query: Looking for the measured solubility (mole fraction) of "C=CC(=O)NC(C)(C)CC(C)=O" , can you help?
result: 0.506

====

Settings: in isopropanol, 297.65 K
readout type: solubility (mole fraction)
Reply briefly: the number, and no unit.

query: For the compound "C=CC(=O)NC(C)(C)CC(C)=O" , what solubility (mole fraction) is on record?
result: 0.398
